- Tested on: CD8+ T cells
- protocol-summary: HSV-2 15-mer peptide screening with CD8+ T cells (IFN-g ELISPOT)
- Type: cell-based, human
- conditions: donor AD116; peptides 10 μg/ml; autologous dendritic cells; 24-hour co-culture
assay-readout: CD8+ T cell IFN-g ELISPOT peptide screening

[
  {
    "substance": "PMRARPRGEVRFLHY [UL49/45-59 (#12)]",
    "test-target": "CD8+ T cells",
    "result": "recognized"
  },
  {
    "substance": "RPRGEVRFLHYDEAG [UL49/49-63 (#13)]",
    "test-target": "CD8+ T cells",
    "result": "recognized"
  },
  {
    "substance": "VAGFNKRVFCAAVGR [UL49/193-208 (#49)]",
    "test-target": "CD8+ T cells",
    "result": "scored positive"
  },
  {
    "substance": "ELYYGPVSP-ADPESP (ELYYGPVSPADPESP) [UL49/21-35 (#6)]",
    "test-target": "CD8+ T cells",
    "result": "scored positive"
  }
]
